# growth values compiled below
- Tested on: 786-0 renal
- PROTOCOL DESCRIPTION: NCI-60 one-dose screen, 48 h (100 = growth as untreated, 0 = no growth, -100 = all killed)
- RUN CONDITIONS: 10 µM unless noted
- Protocol: Cells are grown in 96 well plates and exposed to the test compound for 48 hours. Compounds are tested at a single concentration, which is 10^-5 M for most compounds. The reported endpoint is percent growth (GI% or GIPRCNT), where numbers from 0 - 100% represent growth inhibition, and numbers from -100% - 0 represent cell death. For example, a value of 40 represents 60% growth inhibition. A value of 0 means no net growth occurred over the course of the experiment. […]
The panel holds about 83,000 compounds, 20% with a hit somewhere; the sample as a whole holds those more often.
ASSAY METRIC: growth (%)

{"columns": ["SMI", "ASSAY METRIC", "VALUE REPORTED"],
 "data": [
  ["Oc1c(CN2CCCC2)cc(COCc2ccccc2)c2cccnc12", "growth", 5.96],
  ["COc1ccc(Cn2cc(C(=O)N=Nc3c(O)[nH]c4c(Cl)cccc34)nn2)cc1", "growth", 106],
  ["CCCCNC1=C(OCC)C(=O)c2ccccc2C1=O", "growth", 94.8],
  ["CCCCCCCCn1ccc2cc(NC(=O)Cn3cc(CN4CCN(CC)CC4)nn3)ccc21", "growth", 57.9],
  ["Oc1c(I)cc(-c2nc3ccccc3s2)cc1CN(Cc1ccccn1)Cc1ccccn1", "growth", 2.78],
  ["O=C1/C(=C/c2cccc([N+](=O)[O-])c2)COc2ccc(O)cc21", "growth", 14.7]
]}
